# testProtocol: NCI Yeast Anticancer Drug Screen. Data for the cln2 rad14 strain (AID 165);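 further: 0% = growth equal to vehicle treated cultures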
# reportedConditions: S. cerevisiae cln2 rad14 strain, at 5.0 µM (retest, dose inferred, filed as 0.5), stronger effect = higher value
# Experimental: Growth inhibition of yeast strains with defined genetic alterations is measured as a screen for potential anti-cancer activity. Selected strains with alterations in DNA damage repair or cell cycle control were exposed to compounds and growth inhibition was measured relative to vehicle treated controls. The strain used in this assay is cln2 rad14
Compounds without any hit were thinned out: in the full panel of roughly 79,000, 15% have a hit.
metricName: growth inhibition (%)

smilesstring=COc1ccc2ccc(OC)c(C=O)c2c1 reportedvalue=-63
smilesstring=O=C1CC(=Nc2ccc([N+](=O)[O-])cc2)NN1c1c(Cl)cc(Cl)cc1Cl reportedvalue=-15
smilesstring=CCCCCCCCCCNCCSSCCNC(C)=O reportedvalue=79
smilesstring=Cc1cc(C)nc(CCSS(=O)(=O)O)c1 reportedvalue=-1
smilesstring=CCCCOc1ccc(-c2c(COC(=O)NC)c(COC(=O)NC)c(C)n2C)cc1 reportedvalue=19
smilesstring=C#CCNC1=CC(=O)CCC1 reportedvalue=17
smilesstring=COC(=O)/C=N/O reportedvalue=7
smilesstring=C=C(C#N)C(=O)OCC(CC)CC.C=C(C#N)C(=O)OCC(CC)CC.CS(C)=O.CS(C)=O.Nc1c(N=Nc2ccc(-c3ccc(N=Nc4cc(S(=O)(=O)[O-])c5ccccc5c4N)cc3)cc2)cc(S(=O)(=O)[O-])c2ccccc12.[Pt+2] reportedvalue=-1
smilesstring=CCN(CC)CCNc1c(O)cc(C)c2sc3ccccc3c(=O)c12 reportedvalue=11
smilesstring=O=c1[nH]c(=O)c2n[nH]nc2[nH]1 reportedvalue=9
smilesstring=CNc1c(C(=O)Nc2ccccc2)c(=O)n(C)c(=O)n1C reportedvalue=99
